Origin of values: patent EP4725969A1

Would you kindly list kon for each of these binders?
Molecular target: T1, recombinant human HER2 extracellular domain protein (human, UniProt P04626 23-652)
T1 construct: range 23-652; Range is printed for the immunogen/panning protein; also called ErbB2; recombinant HER2 protein
Assay: BLI, Protein A capture
One number for each entry, in M⁻¹ s⁻¹.

Would you please look over these solved cases?
BINDER	SCALE_UNIT	kon
2126-Hu-L13 (antibody, IgG1, V domains shown, IgG1/Cκ) VH: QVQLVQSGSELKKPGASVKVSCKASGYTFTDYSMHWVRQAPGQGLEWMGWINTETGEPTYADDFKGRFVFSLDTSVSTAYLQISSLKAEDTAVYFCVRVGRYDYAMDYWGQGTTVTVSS VL: DIQMTQSPSSLSASVGDRVTITCKASQDVYTAVAWYQQKPGKAPKLLINSASTRYTGVPSRFSGSGSGTDFTLTISSLQPEDFATYYCQQHYSTPPTFGGGTKVEIK	M⁻¹ s⁻¹	99500
2126-Hu-H23 (antibody, IgG1, V domains shown, IgG1/Cκ) VH: QVQLVQSGSELKKPGASLKVSCKASGYTFTDYSMHWVRQAPGQGLEWMGWINTETGEPTYADDFKGRFVFSLDTSVSTAYLQISSLKAEDTAVYFCVRVGRYDYAMDYWGQGTTVTVSS VL: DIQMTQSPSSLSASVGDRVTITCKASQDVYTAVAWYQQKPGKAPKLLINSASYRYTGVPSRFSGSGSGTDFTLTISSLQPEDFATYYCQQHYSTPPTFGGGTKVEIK	M⁻¹ s⁻¹	106000

Req: Fill blank: measured kon of the binder 2126-Hu-H45 (antibody, IgG1, V domains shown, IgG1/Cκ) VH: QVQLVQSGSELKKPGASVKVSCKASGYTFTDYSMHWVRQAPGQGLEWMGWINTETGEPTYADDFKGRFVFSLDTSVSTAYLQMSSLKAEDTAVYFCVRVGRYDYAMDYWGQGTTVTVSS VL: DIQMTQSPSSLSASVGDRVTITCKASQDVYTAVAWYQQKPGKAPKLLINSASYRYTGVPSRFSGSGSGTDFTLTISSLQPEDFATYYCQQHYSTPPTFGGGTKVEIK is ____.
Resp: 104000
